Test system: Aspergillus ochraceus
Test: Fungicidal activity against Aspergillus ochraceus ATCC 12066 incubated for 72 hrs followed by sub-culturing on broth malt medium and measured after 72 hrs
Type: functional
Conditions: ATCC 12066, 72 h
Checkbox rule: MFC lower than 3 ×10⁻² mM = true (1); MFC not lower than 3 ×10⁻² mM = false (0).

These solved cases illustrate the format of a correct answer.
substance_smiles=COc1cc2c3c(c1)-c1c(ssc1=S)C(C)(C)N3C(=O)/C2=C1\SC(=S)NC1=O class_name="false (0)"
substance_smiles=COc1cc2c(c([N+](=O)[O-])c1)NC(C)(C)c1ssc(=S)c1-2 class_name="false (0)"

Proceed to the following item.
# check: MFC < 3 ×10⁻² mM for Cc1ccc2c(c1)-c1c(ssc1=S)C(C)(C)N2C(=O)CSc1nn(-c2ccccc2)c(=S)s1
true (1)

* * *

System: Aspergillus versicolor
Test: Antifungal activity against Aspergillus versicolor ATCC 11730 after 72 hrs by microdilution method
Type: functional
Details: ATCC 11730, 72 h
Checkbox rule: MIC lower than 10 ×10⁻² mM = Criterion met; MIC not lower than 10 ×10⁻² mM = Criterion not met.

These solved cases illustrate the format of a correct answer.
compound=CC1(C)c2ssc(=S)c2-c2cccc3c2N1C(=O)/C3=N/NC(N)=S class_name="Criterion not met"
compound=Cc1ccc2c(c1)-c1c(ssc1=S)C(C)(C)N2C(=O)CSc1nn(-c2ccccc2)c(=S)s1 class_name="Criterion not met"
compound=COc1cc2c3c(c1)-c1c(ssc1=S)C(C)(C)N3C(=O)/C2=C1\SC(=S)NC1=O class_name="Criterion not met"

# check: MIC < 10 ×10⁻² mM for Cc1ccc2c(c1)-c1c(ssc1=S)C(C)(C)N2C(=O)c1cccnc1
Criterion met

# check: MIC < 10 ×10⁻² mM for CC1(C)c2ssc(=S)c2-c2ccccc2N1C(=O)CSC1=NCCS1
Criterion met

# check: MIC < 10 ×10⁻² mM for CC(=O)N1CCN(c2ccc(OCC3COC(Cn4ccnc4)(c4ccc(Cl)cc4Cl)O3)cc2)CC1 (stereo unspecified) [KETOCONAZOLE]
Criterion not met

* * *

Tested on: Penicillium ochrochloron
Assay: Antifungal activity against Penicillium ochrochloron ATCC 9112 after 72 hrs by microdilution technique
Type: functional
Settings: ATCC 9112, 72 h
Checkbox rule: MIC lower than 1 ×10⁻² mM = T; MIC not lower than 1 ×10⁻² mM = F.

These solved cases illustrate the format of a correct answer.
compound="c1ccc(-c2ccc(C(c3ccccc3)n3ccnc3)cc2)cc1 (stereo not given)" class_name=F
compound=CCOc1ccc2c(c1)-c1c(ssc1=S)C(C)(C)N2C(=O)c1ccc(Cl)c([N+](=O)[O-])c1 class_name=F
compound=Cc1ccc2c(c1)-c1c(ssc1=S)C(C)(C)N2C(=O)CSc1nn(-c2ccccc2)c(=S)s1 class_name=F

Proceed to the following item.
# check: MIC < 1 ×10⁻² mM for COc1ccc2c(c1)-c1c(ssc1=S)C(C)(C)N2C(=O)CSc1nc2ccccc2s1
T

* * *

Hi there, I'd appreciate the recorded MIC for every entry that follows.
Test system: Staphylococcus aureus
Experiment: Antibacterial activity against Staphylococcus aureus ATCC 6538 after 24 hrs by iodonitrotetrazolium chloride dye based microdilution method
Format: functional
Conditions: ATCC 6538, 24 h
Answers are plain numbers, in µM.

# count of solved cases: 3
substance_smiles=COc1ccc2c(c1)-c1c(ssc1=S)C(C)(C)N2C(=O)CSc1nc2ccccc2s1 result_unit=µM value=29.8
substance_smiles=COc1cc2c(c([N+](=O)[O-])c1)NC(C)(C)c1ssc(=S)c1-2 result_unit=µM value=88.1
substance_smiles=CCOc1ccc2c(c1)-c1c(ssc1=S)C(C)(C)N2C(=O)c1ccc(Cl)c([N+](=O)[O-])c1 result_unit=µM value=30.4

Note: attention shifts to another entry.
Just so you know, measured MIC for CCOc1ccc2c(c1)-c1c(ssc1=S)C(C)(C)N2 came out at 29.5
